# experimentalDetails: Hepatic microsomal intrinsic clearance assay
# Assay type: in vitro ADME
# experimentalConditions: pooled liver microsomes, pH 7.4; liver microsomes 0.5 mg/mL; 1 μM; NADPH; 1 hour at 37° C.; LLOQ 0.36 L/h/kg
# Experimental: Compounds (final concentration 1 μM, 1% organic) of the invention were incubated for 1 hour at 37° C., with shaking, in phosphate buffer (pH 7.4) containing commercially sourced pooled liver microsomes (final concentration 0.5 mg/mL). […] Supernatant was diluted (1:4) with deionized water then analyzed by LC-MS/MS.
observationType: CLint scaled at 1 μM

# input Return value of CLint scaled at 1 μM for input "COc1nnccc1-n1nc2c(c1C)Nc1ncc3c(Cl)nn(c3n1)CCCO2" , no commentary.
# output 25.7 mL/min/kg

# input Provide CLint scaled at 1 μM value for the following molecule: "[2H]C([2H])([2H])c1c2c(nn1-c1cccnc1C)OCCCn1nc(Cl)c3cnc(nc31)N2"
# output 11.7 mL/min/kg

# input For the molecule "Cc1c2c(nn1-c1cccnc1OC1CC1)OCCCn1nc(Cl)c3cnc(nc31)N2" , give its reported CLint scaled at 1 μM.
# output 18.7 mL/min/kg

# input # return recorded CLint scaled at 1 μM for input "[2H]C([2H])([2H])Oc1ncccc1-n1nc2c(c1C)Nc1ncc3c(Cl)nn(c3n1)CCCO2"
# output 12.5 mL/min/kg

# input Consider the molecule "Cc1cnc(C)c(-n2nc3c(c2C)Nc2ncc4c(Cl)nn(c4n2)CCCO3)c1" and give its recorded CLint scaled at 1 μM.
# output 12.3 mL/min/kg

# input Give the measured CLint scaled at 1 μM for "CCOc1ncccc1-n1nc2c(c1C)Nc1ncc3c(Cl)nn(c3n1)CCCO2"
# output 20.8 mL/min/kg

# input Output measured CLint scaled at 1 μM for this item: "COc1nc(C)ncc1-n1nc2c(c1C)Nc1ncc3c(Cl)nn(c3n1)CCCO2"
# output < 6 mL/min/kg

# input Supply measured CLint scaled at 1 μM of "CCc1ncccc1-n1nc2c(c1C)Nc1ncc3c(Cl)nn(c3n1)CCCO2" in your reply.
# output 23.8 mL/min/kg
